Molecular target: T1, CD81 (UniProt P60033 1-236, limits assumed)
T1 construct: whole, on cells; also called CD81 receptor
T1 sequence (looked up): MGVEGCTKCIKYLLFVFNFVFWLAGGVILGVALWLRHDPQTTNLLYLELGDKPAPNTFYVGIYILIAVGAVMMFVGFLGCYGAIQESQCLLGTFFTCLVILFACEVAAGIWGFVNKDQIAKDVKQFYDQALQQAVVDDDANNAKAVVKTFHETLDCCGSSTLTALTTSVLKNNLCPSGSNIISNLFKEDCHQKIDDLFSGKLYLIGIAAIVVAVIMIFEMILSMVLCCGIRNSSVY
Assay: cell ELISA;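 further: antibody binding to HuH7 cells expressing CD81 versus a CD81-negative HuH7 control line, bound antibody detected by secondary reagent, absorbance at 450 nm with 620 nm reference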
property-name: ELISA data
Respond using a number only.

Q: Given CD81K13 HC 06-hVH_1_3 / LC CD81K13 (antibody, V domains shown, human constant region) VH: QVQLVQSGAEVKKPGASVKVSCKASGYTFKDSYLHWVRQAPGQRLEWMGRIDTGNGNVKFDPKFQGRVTITTDTSASTAYMELSSLRSEDTAVYYCAPYGYGFHSWGQGTLVTVSS VL: DIQMTQSPASLSVSVGETVTITCRASENIYRTLAWYLQKQGKSPQLLVYGATTLADGVPSRFSGSGSGTQYYLKINSLQSEDFGTYHCQHFWGTPWTFGGGTKVEIK , state its recorded ELISA data.
Ans: 0.447

Q: Which ELISA data value is on record for CD81K13 HC 01-hVH_1_f / LC 05-hVK_1_39 (antibody, V domains shown, human constant region) VH: EVQLVQSGAEVKKPGATVKISCKVSGYTFTDSYMHWVQQAPGKGLEWMGRIDTGNGNVKFDPKFQGRVTITADTSTDTAYMELSSLRSEDTAVYYCAPYGYGFHSWGQGTLVTVSS VL: DIQMTQSPSSLSASVGDRVTITCRASENIYRTLAWYQQKPGKAPKLLIYAATTLASGVPSRFSGSGSGTDFTLTISSLQPEDFATYYCQHFWGTPWTFGQGTKVEIK ?
Ans: 0.458
